- protocol-description: Protection index, ratio of CC50 for Mycobacterium tuberculosis infected mouse J774A1 cells to MIC for Mycobacterium tuberculosis H37Rv ATCC 27294
- Type: functional, J774.A1
assay-endpoint: PI
// print number alone

Recorded result, `CSc1ccc(-c2cc(CN3CCSCC3)c(C)n2-c2ccc(C(C)C)cc2)cc1` , PI: 286.24

Reported PI for `CCCc1ccc(-n2c(-c3ccc(OC)cc3)cc(CN3CCSCC3)c2C)cc1` was 49.12

PI measured on `CSc1ccc(-c2cc(CN3CCSCC3)c(C)n2-c2ccc(C)cc2)cc1` = 73.6

get_value(item= `CCCc1ccc(-c2cc(CN3CCSCC3)c(C)n2-c2ccc(SC)cc2)cc1` , readout=PI) returns 359.68

Please fill in: PI reported for `CSc1ccc(-n2c(-c3ccc(C(C)C)cc3)cc(CN3CCSCC3)c2C)cc1` = 229.9

# molecule `COc1ccc(-c2cc(CN3CCSCC3)c(C)n2-c2ccc(C)cc2)cc1` ; its PI = 46.2

Measured PI, `COc1ccc(-n2c(-c3ccc(C)cc3)cc(CN3CCSCC3)c2C)cc1` : 6.57

# PI of `Cc1c(CN2CCSCC2)cc(-c2ccc(F)cc2)n1-c1ccc(C(F)(F)F)cc1` = 0.29

// `CCc1ccc(-n2c(-c3ccc(OC)cc3)cc(CN3CCSCC3)c2C)cc1` : PI value = 63.04

The reported PI of the molecule `Cc1c(CN2CCSCC2)cc(-c2ccc(F)cc2)n1-c1ccccc1C(F)(F)F` was 0.65

Item: `CCc1ccc(-n2c(-c3ccc(SC)cc3)cc(CN3CCSCC3)c2C)cc1` | PI: 68.72

Documented PI of `COc1ccc(-n2c(-c3ccc(C(C)C)cc3)cc(CN3CCSCC3)c2C)cc1` : 9.76

Sure, the documented PI for `Cc1ccc(-c2cc(CN3CCSCC3)c(C)n2-c2ccc(F)cc2)cc1` is 272.16

Query `CCc1ccc(-c2cc(CN3CCSCC3)c(C)n2-c2ccc(OC)cc2)cc1` yields PI of 36.06

Lab book: PI of `CO[C@H]1/C=C/O[C@@]2(C)Oc3c(C)c(O)c4c(O)c(c(/C=N/N5CCN(C)CC5)c(O)c4c3C2=O)NC(=O)/C(C)=C\C=C\[C@H](C)[C@H](O)[C@@H](C)[C@@H](O)[C@@H](C)[C@H](OC(C)=O)[C@@H]1C` noted as 828.12

Kindly note the recorded PI for `CCc1ccc(-c2cc(CN3CCSCC3)c(C)n2-c2ccc(SC)cc2)cc1` , which is 102.96

Documented PI of `CCCc1ccc(-n2c(-c3ccc(SC)cc3)cc(CN3CCSCC3)c2C)cc1` : 202

Consider `CSc1ccccc1-c1cc(CN2CCSCC2)c(C)n1-c1ccc(F)cc1` . Its measured PI is 1.39

`COc1ccc(-n2c(-c3ccc(F)cc3)cc(CN3CCSCC3)c2C)cc1` yielded PI of 5.32

PI for `COc1ccc(-c2cc(CN3CCSCC3)c(C)n2-c2ccc(C(C)C)cc2)cc1` is 40.88

Kindly note the recorded PI for `CSc1ccccc1-n1c(-c2ccc(F)cc2)cc(CN2CCSCC2)c1C` , which is 4.2

Reported PI for `Cc1c(CN2CCSCC2)cc(-c2ccc(C(F)(F)F)cc2)n1-c1ccc(F)cc1` was 8.46

// PI lookup, molecule = `CSc1ccc(-n2c(-c3ccc(C)cc3)cc(CN3CCSCC3)c2C)cc1` , result: 69.06
